- System: Renin (Homo sapiens, UniProt P00797)
- Sequence (P00797 whole entry): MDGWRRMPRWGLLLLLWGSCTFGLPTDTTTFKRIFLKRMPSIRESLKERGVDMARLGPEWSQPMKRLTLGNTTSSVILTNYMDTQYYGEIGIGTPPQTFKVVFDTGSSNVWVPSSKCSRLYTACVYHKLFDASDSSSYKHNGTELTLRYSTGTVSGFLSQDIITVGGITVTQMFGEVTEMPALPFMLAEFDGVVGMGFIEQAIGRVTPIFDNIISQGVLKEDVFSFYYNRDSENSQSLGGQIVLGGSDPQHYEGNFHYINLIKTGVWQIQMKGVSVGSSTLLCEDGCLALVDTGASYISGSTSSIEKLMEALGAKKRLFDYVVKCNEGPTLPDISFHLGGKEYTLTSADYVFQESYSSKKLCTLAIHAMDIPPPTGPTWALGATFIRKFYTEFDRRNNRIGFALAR
- Assay remarks: Inhibition of renin in human plasma using Q-FRET substrate pretreated for 10 mins before substrate addition measured after 1 hr
Readout name: IC50 (nM)

Structure	IC50 (nM)
COCCCn1cc(CN(C(=O)[C@H]2CNCC[C@@H]2c2ccn(C)c(=O)c2)C2CC2)c2c(Cl)cccc21	0.64
COCCCc1cc(Cl)c(Cl)c(CN(C(=O)[C@H]2CNCC[C@@H]2c2ccn(C)c(=O)c2)C2CC2)c1	1.3
Cn1ccc([C@H]2CCNC[C@@H]2C(=O)N(Cc2cc(CCC#N)cc(Cl)c2Cl)C2CC2)cc1=O	17
COCCCc1cc(Cl)cc(CN(C(=O)[C@H]2CNCC[C@@H]2c2ccn(C)c(=O)c2)C2CC2)c1	6.5
COCCCc1cc(CN(C(=O)[C@H]2CNCC[C@@H]2c2ccn(C)c(=O)c2)C2CC2)c2ccccc2n1	3

P. COCCCc1cc(CN(C(=O)[C@H]2CNCC[C@@H]2c2ccccc2)C2CC2)cc(OCCOC)c1
Q. COCCCc1cc(CN(C(=O)[C@H]2CNCC[C@@H]2c2cccnc2)C2CC2)cc(OCCOC)c1
R. Cn1ccc([C@H]2CCNC[C@@H]2C(=O)N(Cc2c[nH]c3cccc(F)c23)C2CC2)cc1=O
query: Hey, can you sort those compounds up there by IC50, smallest first? Lab note: record answer as labels in requested order.
result: R, Q, P
(R: 8.4 nM, Q: 140 nM, P: 580 nM)

----------
- Assay remarks: Oral bioavailability in Sprague-Dawley rat at 20 mg/kg
- Type: ADME, organism-based
- Settings: in vivo
Readout name: bioavailability (%)

Structure	Value units	bioavailability
COCCCc1cc(CN(C(=O)[C@H]2CNCC[C@@H]2c2cc(=O)n(C)c(C)c2C)C2CC2)cc(OCCOC)c1	%	0

I. CCn1ccc([C@H]2CCNC[C@@H]2C(=O)N(Cc2cc(CCCOC)cc(OCCOC)c2)C2CC2)cc1=O
II. COCCc1cc(Cl)c(Cl)c(CN(C(=O)[C@H]2CNCC[C@@H]2c2ccn(C)c(=O)c2)C2CC2)c1
query: I or II : whose bioavailability is greater? # reply format: chosen label
result: II
(II: 18%, I: 1%)

a. COCCCc1cc(CN(C(=O)[C@H]2CNCC[C@@H]2c2ccn(C)c(=O)c2)C2CC2)c2ccccc2n1
b. COCCCc1cc(CN(C(=O)[C@H]2CNCC[C@@H]2c2ccn(C)c(=O)c2)C2CC2)cc(OCCOC)c1
c. COCCCc1cc(CN(C(=O)[C@H]2CNCC[C@@H]2c2ccn(C)c(=O)c2)C2CC2)cc(Br)c1C
d. COCCCc1cc(CN(C(=O)[C@H]2CNCC[C@@H]2c2cccnc2)C2CC2)cc(OCCOC)c1
query: Provide the items ranked by increasing bioavailability. Submit the labels in the order that the ranking request calls for.
result: a, b, c, d
(a: 1%, b: 3%, c: 30%, d: 61%)
